Assay target: Potassium voltage-gated channel subfamily KQT member 1 (Homo sapiens) (UniProt P51787)
Sequence (P51787 whole entry, looked up): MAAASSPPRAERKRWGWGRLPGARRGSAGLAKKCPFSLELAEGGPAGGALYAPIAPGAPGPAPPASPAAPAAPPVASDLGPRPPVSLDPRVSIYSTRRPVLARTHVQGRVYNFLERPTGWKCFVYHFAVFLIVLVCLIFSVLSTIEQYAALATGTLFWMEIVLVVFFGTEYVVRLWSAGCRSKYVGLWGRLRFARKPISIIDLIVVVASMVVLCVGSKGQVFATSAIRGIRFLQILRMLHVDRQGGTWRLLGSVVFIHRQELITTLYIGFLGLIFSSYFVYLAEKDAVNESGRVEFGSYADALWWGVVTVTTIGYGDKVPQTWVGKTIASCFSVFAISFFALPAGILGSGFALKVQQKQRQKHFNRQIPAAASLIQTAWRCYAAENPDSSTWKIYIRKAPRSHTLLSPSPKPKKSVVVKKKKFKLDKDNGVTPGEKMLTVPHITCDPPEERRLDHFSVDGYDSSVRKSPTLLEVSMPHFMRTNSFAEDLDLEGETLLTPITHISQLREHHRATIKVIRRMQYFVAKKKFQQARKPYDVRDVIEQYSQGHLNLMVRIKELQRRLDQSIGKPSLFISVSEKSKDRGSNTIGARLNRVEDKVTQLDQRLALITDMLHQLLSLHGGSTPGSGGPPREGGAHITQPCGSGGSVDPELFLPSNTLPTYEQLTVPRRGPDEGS
Test: inhibitors of human KCNQ1 channel, primary screen, cell-based, thallium flux, high-throughput (AID 2642);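 note: channel opened by potassium depolarization with thallium stimulus after 20 min compound exposure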
Condition: CHO-K1 KCNQ1, FluxOR thallium flux fluorescence, at 10 µM
In all, about 310,000 compounds went through this assay and about 3,900 (1.3%) were called active.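 Rule for the calls: active = compounds whose thallium flux B-score, printed positive for inhibition, exceeds three library SD while starting fluorescence stays within three; inactive = the rest.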 This excerpt belongs to a sample that is enriched for actives.
Labels: True (active), False (inactive)

| Compound | Category |
| --- | --- |
| CSc1ccccc1NC(=O)c1cnc2sc(C)cn2c1=O | False |
| Cc1cc(C)c(S(=O)(=O)N2CCCC2CNC(=O)c2ccc3c(c2)OCO3)c(C)c1 (stereo not given) | False |
| O=C(Nc1cccc(Cl)c1)c1cc(S(=O)(=O)N2CCCCC2)c[nH]1 | False |
| CC(=O)N/N=C/c1cc2c(cc1[N+](=O)[O-])OCO2 | False |
| Cc1ccccc1NC(=O)NCC1CCN(Cc2cccc(Cl)c2)CC1 | False |
| CCOC(=O)c1oc2ccccc2c1NC(=O)c1cccs1 | False |
| Cc1ccccc1NS(=O)(=O)CCCCC(Cl)(Cl)Cl | False |
| Cc1ccc(N(CC(=O)Nc2cccc(N(C)S(C)(=O)=O)c2)S(C)(=O)=O)cc1 | False |
| COc1ccc(CCNS(=O)(=O)c2cccc([N+](=O)[O-])c2)cc1 | False |
| COCCn1c(N)c(NCc2ccccc2)c(=O)[nH]c1=O | False |
| CC1Cc2ccccc2N1S(=O)(=O)c1c(N)n(C)c(=O)n(C)c1=O (stereo not given) | False |
| COc1cccc(N(CC(=O)Nc2cccc(N(C)S(C)(=O)=O)c2)S(C)(=O)=O)c1 | False |
| CCOC(=O)c1ccc(NC(=O)Cn2cnc3cc(C)c(C)cc32)cc1 | True |
| COc1ccc(N2CCN(C(=O)Cn3cnc4sc(C)c(S(=O)(=O)N5CCOCC5)c4c3=O)CC2)cc1 | False |
| O=C(NCc1ccncc1)NC12CC3CC(CC(C3)C1)C2 | False |
| c1ccc(-c2ccc3c(c2)NC(C2Nc4cc(-c5ccccc5)ccc4O2)O3)cc1 (stereo not given) | False |
| COCc1c(C(=O)OCc2c(C)noc2C)oc2ccccc12 | False |
| COc1ccc2c3c(c(=O)oc2c1OCC(=O)C(C)(C)C)CCCC3 | False |
| CC1CCN(CCC(=O)Nc2ccccc2)CC1 | False |
| S=C(NCc1ccc(Cl)cc1)NC1CCCCC1 | False |
| COc1ccc(CN(C)C(C)C(=O)NC2CCCc3ccccc32)cc1 (stereo not given) | False |
| CCOC(=O)N1CCN(C(=O)c2cc3c(-c4ccc(Cl)cc4)nn(C)c3s2)CC1 | False |
| C=CCc1c(C)nc2cc(-c3ccccc3)[nH]n2c1=O | False |
| Cc1cc(O)ccc1NC1=CC(=O)CC(C)(C)C1 | False |
| O=C(N/N=C/c1cc2c(cc1Br)OCO2)C1COc2ccccc2O1 (stereo not given) | False |
| COc1ccc(S(=O)(=O)N2CCCC(C(=O)NCCCn3ccnc3)C2)cc1OC (stereo not given) | False |
| CC(=O)NNC1=Nc2ccccc2N(C)C(C)C1 (stereo not given) | False |
| Cc1cc(C)cc(NC(=O)NC2CCCCCCC2)c1 | True |
| Cc1c(Br)c([N+](=O)[O-])nn1C(C)C(=O)Nc1nccs1 (stereo not given) | False |
| Cc1nc(Nc2ccccc2F)c2nnn(Cc3ccccc3Cl)c2n1 | False |
| CCOC(=O)c1ccc(NC(=O)CSc2nnc(COc3ccccc3OC)n2C)cc1 | False |
| CC1CN(C(=S)Nc2ccc(Br)cc2Cl)CC(C)O1 (stereo not given) | False |
| Cc1c(OC(C)C(=O)N[C@@H](Cc2ccccc2)C(=O)O)ccc2c3c(c(=O)oc12)CCCC3 (stereo not given in full) | False |
| O=C(CN1C(=O)NC2(CCCC2)C1=O)OCCOc1ccc(F)cc1 | False |
| CC(C(=O)NCC1CCCCC1)N(C)Cc1cccc(Cl)c1 (stereo not given) | True |
| CCCCOc1ccc(C(=O)NCC(=O)OCC(=O)N2CCN(S(=O)(=O)c3ccc(C)cc3C)CC2)cc1 | False |
| CN(c1cccc(NC(=O)Nc2ccc(Cl)cc2)c1)S(C)(=O)=O | True |
| Cc1ccc(NC(=S)NC(NC(=O)Cc2cccc3ccccc23)C(Cl)(Cl)Cl)cc1 (stereo not given) | False |
| Cc1nn2c(c1-c1ccccc1)N=C(c1ccco1)CC2c1ccccc1 (stereo not given) | False |
| COc1ccc(OC)c2[nH]c(=O)c(CCNC(=O)C(=O)c3c[nH]c4ccccc34)cc12 | False |
| CCOc1ccc(S(=O)(=O)N2CCC(C(=O)OCc3ccc(OC)cc3)CC2)cc1 | False |
| CCOC(=O)c1nc(C)n(-c2ccc(Cl)cc2Cl)n1 | False |
| CCn1c(SCCC(C)C)nnc1-c1c[nH]c2ccccc12 | True |
| O=C(Nc1cccc(F)c1)NC1CCCCCCC1 | False |
| CCCc1nnc(SCC(=O)Nc2ccc(C(=O)OCC)cc2)o1 | False |
